meta.source: ChEMBL document CHEMBL1629712

# TEST_SUMMARY: Antiproliferative activity against human CCC-HPF1 cells after 96 hrs by MTT assay
# Format: cell-based
READOUT_KIND: CC50 at 96 h (µM)
Reply numerically in µM, unit not repeated.

Consider the molecule shown here: CN(C)c1ccc(/C=C2\Oc3ccc(O)cc3C2=O)cc1 What is its recorded CC50 at 96 h?
25.1

* * *

# TEST_SUMMARY: Selectivity ratio of CC50 for human CCC-HPF1 cells to IC50 for HUVEC
# Type: ADME, cell-based
# MEASUREMENT_CONDITIONS: CCC-HPF1 cells versus HUVEC, read-out: Ratio CC50/IC50
READOUT_KIND: selectivity ratio
// print number alone

// lookup selectivity ratio for CN(C)c1ccc(/C=C2\Oc3ccc(O)cc3C2=O)cc1
20
